- tested-on: hERG (Homo sapiens, UniProt Q12809)
- Sequence (Q12809 whole entry): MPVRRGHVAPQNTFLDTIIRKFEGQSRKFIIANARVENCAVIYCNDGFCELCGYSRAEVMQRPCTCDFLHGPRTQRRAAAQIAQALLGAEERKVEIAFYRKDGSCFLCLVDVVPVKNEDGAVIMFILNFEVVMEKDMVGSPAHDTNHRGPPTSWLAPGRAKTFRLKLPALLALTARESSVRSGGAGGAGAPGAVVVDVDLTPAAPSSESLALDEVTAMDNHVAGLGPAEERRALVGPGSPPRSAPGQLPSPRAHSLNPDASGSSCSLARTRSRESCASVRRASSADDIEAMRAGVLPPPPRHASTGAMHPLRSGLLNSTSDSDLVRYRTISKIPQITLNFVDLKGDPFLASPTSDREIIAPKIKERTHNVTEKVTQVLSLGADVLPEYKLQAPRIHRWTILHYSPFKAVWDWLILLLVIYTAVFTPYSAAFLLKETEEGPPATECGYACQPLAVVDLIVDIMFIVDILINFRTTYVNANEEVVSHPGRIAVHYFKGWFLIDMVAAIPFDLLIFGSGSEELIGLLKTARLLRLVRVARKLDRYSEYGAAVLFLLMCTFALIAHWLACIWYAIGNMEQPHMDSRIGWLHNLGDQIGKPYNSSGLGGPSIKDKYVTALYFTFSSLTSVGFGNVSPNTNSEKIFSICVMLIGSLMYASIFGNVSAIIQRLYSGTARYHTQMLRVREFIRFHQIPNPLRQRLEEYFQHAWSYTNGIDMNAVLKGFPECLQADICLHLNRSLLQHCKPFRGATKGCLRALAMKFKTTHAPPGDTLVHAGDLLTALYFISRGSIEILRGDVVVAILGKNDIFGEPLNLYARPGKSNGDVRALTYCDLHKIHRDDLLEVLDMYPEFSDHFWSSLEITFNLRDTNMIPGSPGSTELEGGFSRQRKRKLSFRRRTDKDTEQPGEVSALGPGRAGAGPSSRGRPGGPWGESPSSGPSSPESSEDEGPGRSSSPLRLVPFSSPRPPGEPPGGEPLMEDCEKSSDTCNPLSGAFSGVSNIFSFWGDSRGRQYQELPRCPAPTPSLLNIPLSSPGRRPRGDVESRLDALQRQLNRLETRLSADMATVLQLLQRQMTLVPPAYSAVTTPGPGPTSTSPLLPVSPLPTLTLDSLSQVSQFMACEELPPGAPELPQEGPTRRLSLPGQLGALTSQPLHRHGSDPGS
- measurement-notes: hERG thallium flux assay
- stated-conditions: Tl+ flux assay
pIC50: −log10 of the molar value.
reported-property: pIC50

Query: Quick one: pIC50 of O=C(NCc1ccc(OC(F)(F)F)cc1Cl)c1ccc2nncn2c1 [Compound 20] ?
Reply: < 4.52

----------
- measurement-notes: rat plasma:brain level study (Kp, Kp,uu)
- Assay type: in vivo
- stated-conditions: male, Sprague-Dawley, brain and plasma; oral rat plasma:brain level study; 2 h after 3 mg/kg PO
Reported Kp at 2 h values follow for various compounds
Give the value as a plain number.

Examples with their reported Kp at 2 h follow.
# compound, Kp at 2 h
measured = [
    ("Cc1cc(OC(F)(F)F)ccc1CNC(=O)c1ccc2ncnn2c1 [Compound 19a]", 0.5),
    ("O=C(NCc1ccc(OC(F)(F)F)cc1F)c1ccc2ncnn2c1 [Compound 19b]", 0.37),
]

Next up:
Query: Quick one: Kp at 2 h of `CS(=O)(=O)Nc1ccc(C(=O)NCc2ccc(Cl)cc2Cl)cc1` ?
Reply: 0.26

----------
- tested-on: TREK-2 (Homo sapiens)
- Sequence (P57789 whole entry): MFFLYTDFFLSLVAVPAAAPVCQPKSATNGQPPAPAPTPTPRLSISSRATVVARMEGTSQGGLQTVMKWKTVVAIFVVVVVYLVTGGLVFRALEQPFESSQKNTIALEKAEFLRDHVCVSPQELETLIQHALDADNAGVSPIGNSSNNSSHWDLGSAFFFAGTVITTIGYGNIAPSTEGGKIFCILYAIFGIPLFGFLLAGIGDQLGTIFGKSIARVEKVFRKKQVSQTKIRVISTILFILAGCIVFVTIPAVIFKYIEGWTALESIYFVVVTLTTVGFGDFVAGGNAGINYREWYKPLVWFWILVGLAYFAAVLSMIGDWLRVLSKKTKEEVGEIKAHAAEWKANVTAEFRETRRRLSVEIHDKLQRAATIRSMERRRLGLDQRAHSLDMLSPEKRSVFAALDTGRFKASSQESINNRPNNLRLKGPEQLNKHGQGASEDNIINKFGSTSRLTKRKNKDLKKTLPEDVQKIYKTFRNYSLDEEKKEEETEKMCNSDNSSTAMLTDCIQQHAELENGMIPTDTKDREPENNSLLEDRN
- measurement-notes: TREK-2 thallium flux assay (hTREK-2/HEK)
- Type: cell-based
- Design: expressed in transfected cells; host or cells: HEK293
- stated-conditions: TREK-2 preference over TREK-1, thallium flux
reported-property: Fold TREK-2 (fold)
Numbers only here, please. The scale is fold.

Examples with their reported Fold TREK-2 follow.
# compound, unit-label, Fold TREK-2
measured = [
    ("COc1cc(OC(F)(F)F)ccc1CNC(=O)c1ccc(-n2cncn2)nc1 [Compound 14b]", "fold", 3.7),
    ("O=C(NCc1ccc(OC(F)(F)F)cc1F)c1ccc2ncnn2c1 [Compound 19b]", "fold", 9.3),
]

Next up:
Query: Identify the measured Fold TREK-2 of Cc1cc(OC(F)(F)F)ccc1CNC(=O)c1ccc2ncnn2c1 [Compound 19a] for TREK-2 (Homo sapiens).
Reply: 25.3

----------
Reported Emax values follow for various compounds
- tested-on: TREK-1 (Homo sapiens)
- Sequence (O95069 whole entry): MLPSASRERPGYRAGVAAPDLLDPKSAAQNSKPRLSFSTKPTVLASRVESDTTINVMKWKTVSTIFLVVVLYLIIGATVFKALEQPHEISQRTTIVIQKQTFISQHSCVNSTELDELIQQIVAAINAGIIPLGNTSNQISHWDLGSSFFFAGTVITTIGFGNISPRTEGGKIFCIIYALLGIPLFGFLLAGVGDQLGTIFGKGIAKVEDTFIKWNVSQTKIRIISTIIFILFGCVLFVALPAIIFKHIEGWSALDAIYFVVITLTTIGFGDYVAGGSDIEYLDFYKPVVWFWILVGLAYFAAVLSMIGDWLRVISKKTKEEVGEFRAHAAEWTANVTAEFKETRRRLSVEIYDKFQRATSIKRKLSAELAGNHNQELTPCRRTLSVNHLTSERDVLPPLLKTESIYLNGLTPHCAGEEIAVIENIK
- measurement-notes: TREK-1 thallium flux assay (hTREK-1/CHO)
- Assay type: cell-based
- Parameters: host or cells: CHO
- stated-conditions: % activation relative to 10 µM BL-1249
Numbers only here, please. The scale is %.

Query: Quick one: Emax of `CS(=O)(=O)Nc1ccc(C(=O)NCc2ccc(Cl)cc2Cl)cc1` ?
Reply: 85

Query: Quick one: Emax of COc1cc(OC(F)(F)F)ccc1CNC(=O)c1ccc(-n2cncn2)nc1 [Compound 14b] ?
Reply: 42

Query: Quick one: Emax of O=C(NCc1ccc(Br)cc1Cl)c1ccc(-c2ncn[nH]2)cc1 [Compound 14a] ?
Reply: 93

Query: Quick one: Emax of Cc1cc(OC(F)(F)F)ccc1CNC(=O)c1ccc2ncnn2c1 [Compound 19a] ?
Reply: 99

Query: Quick one: Emax of O=C(NCc1ccc(OC(F)(F)F)cc1F)c1ccc2ncnn2c1 [Compound 19b] ?
Reply: 95

Query: Quick one: Emax of Cc1cc(OC(F)(F)F)ccc1CNC(=O)c1ccc(-n2cncn2)nc1 [Compound 14c] ?
Reply: 20

----------
Reported fraction unbound at 6 h, 5 µM values follow for various compounds
- measurement-notes: rat plasma protein binding (equilibrium dialysis)
- Format: in vitro ADME
- stated-conditions: pH 7.4, read-out: rat plasma fu
- Description: In vitro Plasma protein binding and Brain homogenate binding: Determination of fraction unbound (f u) in plasma was conducted in vitro via equilibrium dialysis using HTDialysis (HTD) membrane plates. […] The unbound fraction (f u) was calculated following the equation below, and mean values for each species were calculated from 3 replicates. […] Fraction unbound for both plasma and brain samples was determined using Equation 4. […]

# compound, result
measured = [
    ("O=c1[nH]c(-c2ccc(F)cc2Nc2cccc(C(F)(F)F)c2)no1", 0.042),
    ("CS(=O)(=O)Nc1ccc(C(=O)NCc2ccc(Cl)cc2Cl)cc1", 0.027),
    ("Cc1cc(OC(F)(F)F)ccc1CNC(=O)c1ccc2ncnn2c1 [Compound 19a]", 0.075),
]

Next up:
Query: Quick one: fraction unbound at 6 h, 5 µM of O=C(NCc1ccc(OC(F)(F)F)cc1F)c1ccc2ncnn2c1 [Compound 19b] ?
Reply: 0.075

Data origin, for the record: paper PMC11887051
